Data credit: patent US20100303758A1

biological target: human GR (Homo sapiens, UniProt P04150); construct: SW1353 naturally expresses human GR; endogenous in cells; assay: GR agonist potency, MMTV-luciferase reporter in SW1353 cells; details: human chondrosarcoma cell-line SW1353 stably transfected with MMTV-luciferase reporter; approx. 18 hours; data as percentage of 1 μM dexamethasone positive control
Sequence (P04150 whole entry): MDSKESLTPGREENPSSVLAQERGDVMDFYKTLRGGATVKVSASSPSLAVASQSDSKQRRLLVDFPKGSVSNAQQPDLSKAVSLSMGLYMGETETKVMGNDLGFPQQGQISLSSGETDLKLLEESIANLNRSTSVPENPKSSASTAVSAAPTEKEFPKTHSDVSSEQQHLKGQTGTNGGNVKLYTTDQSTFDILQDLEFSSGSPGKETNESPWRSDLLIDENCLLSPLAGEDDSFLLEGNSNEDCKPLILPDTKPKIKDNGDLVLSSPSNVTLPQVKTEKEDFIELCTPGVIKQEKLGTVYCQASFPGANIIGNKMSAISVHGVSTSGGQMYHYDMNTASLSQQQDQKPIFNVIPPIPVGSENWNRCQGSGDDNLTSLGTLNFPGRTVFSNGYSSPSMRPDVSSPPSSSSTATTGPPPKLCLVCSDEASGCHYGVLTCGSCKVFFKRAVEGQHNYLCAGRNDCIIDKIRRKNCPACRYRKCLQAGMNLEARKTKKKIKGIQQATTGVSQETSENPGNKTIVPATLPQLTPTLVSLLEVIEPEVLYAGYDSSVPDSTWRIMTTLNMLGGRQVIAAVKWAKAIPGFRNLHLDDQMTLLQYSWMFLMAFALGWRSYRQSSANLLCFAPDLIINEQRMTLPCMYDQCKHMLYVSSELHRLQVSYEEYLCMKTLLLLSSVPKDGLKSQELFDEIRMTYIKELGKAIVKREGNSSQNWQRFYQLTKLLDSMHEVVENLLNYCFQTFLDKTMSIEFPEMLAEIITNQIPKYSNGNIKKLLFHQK
quantityKind: pEC50
Give bare numbers, as −log10 of the molar value.

CSc1cccc(Sc2ccc(C(=O)O[C@]3(C(=O)OCC#N)CC[C@H]4[C@@H]5CCC6=CC(=O)C=C[C@]6(C)[C@@]5(F)[C@@H](O)C[C@@]43C)cc2)c1: 7.21
C[C@]12C=CC(=O)C=C1CC[C@H]1[C@@H]3CC[C@](OC(=O)c4ccc(-c5ccccc5)cc4)(C(=O)OCC#N)[C@@]3(C)C[C@H](O)[C@@]12F: 7.40

Attention now turns to another entry.
**Q:** GET /values?readout=pEC50&item= C[C@]12C=CC(=O)C=C1CC[C@H]1[C@@H]3CC[C@](OC(=O)c4ccc(Sc5cccc(O)c5)cc4)(C(=O)OCC#N)[C@@]3(C)C[C@H](O)[C@@]12F
**A:** 7.45
